# Plant response rating, Blackgrass values compiled below
test system: blackgrass (Alopecurus myosuroides); assay: Test C pre-/postemergence: blackgrass; type: in vivo; details: Postemergence, 31 g ai/ha; scale 0 to 100 (0 no effect, 100 complete control)
No unit in the answer, only the number.

Please review the following examples before continuing.
Cc1nn(-c2ccc(C(F)(F)F)cn2)nc1Cc1cccc(C(F)(F)F)c1 [Compound 106]    30
Cc1nn(-c2ccc(C(F)(F)F)cn2)nc1Oc1ccnc(C(F)(F)F)c1 [Compound 23]    15

### Prompt # return Plant response rating, Blackgrass for CCOc1nn(-c2ccc(F)cc2)nc1Cc1ccnc(C(F)(F)F)c1 [Compound 196] , test system: blackgrass (Alopecurus myosuroides)
### Response 70

### Prompt Lab note: blackgrass (Alopecurus myosuroides) assay, enter Plant response rating, Blackgrass for CCc1nn(-c2ccc(C(F)(F)F)c(F)c2)nc1Oc1ccnc(C(F)(F)F)c1 [Compound 183] here
### Response 10

### Prompt Consider the molecule CCc1nn(-c2ccc(F)cc2)nc1Cc1ccnc(C(F)(F)F)c1 [Compound 154] tested on blackgrass (Alopecurus myosuroides); state its Plant response rating, Blackgrass.
### Response 15
